B1: 6NMW (parent)
chain: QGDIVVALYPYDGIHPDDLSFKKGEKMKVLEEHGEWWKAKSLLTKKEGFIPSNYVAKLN

# Variants of: B1
# Assay Method Text: folding stability dG (cDNA display proteolysis); higher = more stable
# Run Conditions: PBS, room temperature
Here, each record is paired with measured folding stability dG data.

# Mutation List, folding stability dG
rows = [
    ("Y9S", "1.95 kcal/mol"),
    ("Y11N", "0.567 kcal/mol"),
    ("G24R", "0.941 kcal/mol"),
    ("E47W", "2.14 kcal/mol"),
    ("L58D", "2.77 kcal/mol"),
    ("P10Y", "2.66 kcal/mol"),
    ("E31H", "2.63 kcal/mol"),
    ("I50W", "-0.594 kcal/mol"),
    ("K22D", "2.71 kcal/mol"),
    ("P16A", "3.29 kcal/mol"),
    ("P16N", "2.68 kcal/mol"),
    ("Y54R", "2.74 kcal/mol"),
    ("G34I", "1.4 kcal/mol"),
    ("N53V", "2.88 kcal/mol"),
    ("E31W", "3.2 kcal/mol"),
    ("V29Y", "0.219 kcal/mol"),
    ("E25L", "-0.25 kcal/mol"),
    ("W37A", "2.24 kcal/mol"),
    ("L58P", "2.38 kcal/mol"),
    ("P51S", "1.19 kcal/mol"),
    ("T44R", "0.922 kcal/mol"),
    ("S20P", "2.81 kcal/mol"),
    ("H33C", "4.43 kcal/mol"),
    ("K45R", "3.65 kcal/mol"),
    ("S20G", "2.01 kcal/mol"),
    ("G34D", "1.96 kcal/mol"),
    ("S41D", "0.362 kcal/mol"),
    ("S20L", "1.15 kcal/mol"),
    ("L8C", "3.47 kcal/mol"),
    ("E31R", "2.56 kcal/mol"),
    ("I14Q", "3.67 kcal/mol"),
    ("K23S", "2.34 kcal/mol"),
    ("S20E", "1.75 kcal/mol"),
    ("D18M", "3.67 kcal/mol"),
    ("S52N", "2.58 kcal/mol"),
    ("E47C", "3.83 kcal/mol"),
    ("G34M", "1.59 kcal/mol"),
    ("P16I", "3 kcal/mol"),
    ("S52E", "1.64 kcal/mol"),
    ("D3A", "4.25 kcal/mol"),
    ("K57A", "3.02 kcal/mol"),
    ("E35R", "3.59 kcal/mol"),
    ("Y54S", "1.81 kcal/mol"),
    ("K23P", "2.02 kcal/mol"),
    ("Y54V", "1.29 kcal/mol"),
    ("L42Y", "2.14 kcal/mol"),
    ("L43V", "3.56 kcal/mol"),
    ("K22T", "3.15 kcal/mol"),
    ("W37V", "3.04 kcal/mol"),
    ("E32G", "3.33 kcal/mol"),
    ("G2M", "3.38 kcal/mol"),
    ("D12Q", "4.13 kcal/mol"),
    ("E35G", "3.14 kcal/mol"),
    ("E25N", "0.344 kcal/mol"),
    ("G2Q", "3.21 kcal/mol"),
    ("K40Y", "3.79 kcal/mol"),
    ("L30D", "0.53 kcal/mol"),
    ("H15I", "1.63 kcal/mol"),
    ("E32K", "4.72 kcal/mol"),
    ("N53A", "4.07 kcal/mol"),
    ("K22G", "2.74 kcal/mol"),
    ("P51D", "1.08 kcal/mol"),
    ("N53L", "3 kcal/mol"),
    ("Y54A", "2.58 kcal/mol"),
    ("I4M", "2.52 kcal/mol"),
    ("N53I", "2.98 kcal/mol"),
    ("P16W", "2.79 kcal/mol"),
    ("K57D", "1.86 kcal/mol"),
    ("P10N", "4.84 kcal/mol"),
    ("K22F", "2.5 kcal/mol"),
    ("D17Q", "3.88 kcal/mol"),
    ("L30F", "2.37 kcal/mol"),
    ("K46W", "1.73 kcal/mol"),
    ("E31D", "3.05 kcal/mol"),
    ("V6F", "2.89 kcal/mol"),
    ("K26Y", "4.84 kcal/mol"),
    ("H15D", "2.54 kcal/mol"),
    ("K57I", "3.23 kcal/mol"),
    ("E32D", "4.38 kcal/mol"),
    ("G34W", "1.24 kcal/mol"),
    ("K40V", "4.24 kcal/mol"),
    ("L43W", "4.56 kcal/mol"),
    ("L42F", "2.83 kcal/mol"),
    ("V55T", "1.68 kcal/mol"),
    ("W36R", "4.45 kcal/mol"),
    ("Y11Q", "-0.356 kcal/mol"),
    ("H33R", "3.41 kcal/mol"),
    ("I4C", "2.58 kcal/mol"),
    ("D17E", "3.72 kcal/mol"),
    ("V29P", "0.224 kcal/mol"),
    ("E32R", "4.29 kcal/mol"),
]
